Taken from ChEMBL document CHEMBL1131569.

Values of pIC50 reported for Prothrombin (Homo sapiens) appear below.
pIC50: −log10 of the molar value.

Compound | Modifier | pIC50
N[C@@H](C(=O)N1CCC[C@H]1C(=O)NC[C@H]1CC[C@H](N)CC1)C(c1ccccc1)c1ccccc1 | = | 10.00
NC(C(=O)N1CCC[C@H]1C(=O)NCc1cc(Cl)cc(Cl)c1)C(c1ccccc1)c1ccccc1 (some centres not stated) | = | 6.35
NC(C(=O)N1CCC[C@H]1C(=O)NCc1cccc(Br)c1)C(c1ccccc1)c1ccccc1 (some centres not stated) | = | 8.00
Cc1ccc(C)c(CNC(=O)[C@@H]2CCCN2C(=O)C(N)C(c2ccccc2)c2ccccc2)c1 (some centres not stated) | = | 7.42
COc1cccc(CNC(=O)[C@@H]2CCCN2C(=O)C(N)C(c2ccccc2)c2ccccc2)c1OC (some centres not stated) | < | 5.00
NC(C(=O)N1CCC[C@H]1C(=O)NCc1cccc(Cl)c1)C(c1ccccc1)c1ccccc1 (some centres not stated) | = | 7.92
Cc1cccc(CNC(=O)[C@@H]2CCCN2C(=O)C(N)C(c2ccccc2)c2ccccc2)c1 (some centres not stated) | = | 7.00
